TEST_DETAILS: Nuclear factor erythroid 2-related factor 2/antioxidant responsive element (Nrf2/ARE) small molecule agonists: luciferase reporter gene qHTS assay in human keratinocytes (AID 1919969); also: nearly all actives have a fitted effect of over 35% in size
CONDITION_NOTES: KeratinoSens HaCaT ARE-luciferase, luminescence, 24 h; series mostly up to 92.4 µM
Results filed as inconclusive are left out. Active and inactive are the calls of the source. Calls follow the shape of the full dose curve.
Labels: active, inactive

- COMPOUND: "CC(=O)C1CCCCC1=O (stereo unspecified)"
  ASSIGNED_CLASS: "inactive"
- COMPOUND: "C=C1C(CCl)(CCl)C2(Cl)C(Cl)C(Cl)C1(Cl)C2(Cl)Cl (stereo unspecified)"
  ASSIGNED_CLASS: "active"
- COMPOUND: "Cc1ccc(C(=O)c2ccc(CC(=O)O)n2C)cc1"
  ASSIGNED_CLASS: "inactive"
- COMPOUND: "CCN(CC)CCNC(=O)c1cc(Br)c(N)cc1OC"
  ASSIGNED_CLASS: "inactive"
- COMPOUND: "O=C(Nc1ccc2c(O)c(N=Nc3ccc(N=Nc4ccc(S(=O)(=O)O)cc4)cc3)c(S(=O)(=O)O)cc2c1)c1ccccc1"
  ASSIGNED_CLASS: "inactive"
- COMPOUND: "Cc1oc(=O)oc1COC(=O)[C@@H]1N2C(=O)[C@@H](NC(=O)[C@H](N)c3ccccc3)[C@H]2SC1(C)C"
  ASSIGNED_CLASS: "inactive"
- COMPOUND: "c1cnc2c(n1)CCCC2"
  ASSIGNED_CLASS: "inactive"
- COMPOUND: "Nc1nc(Cl)nc2c1ncn2[C@@H]1O[C@H](CO)[C@@H](O)[C@@H]1F"
  ASSIGNED_CLASS: "inactive"
- COMPOUND: "Cc1ccccc1C(=O)Nc1ccc(C(=O)N2CCCC(N(C)C)c3ccccc32)cc1 (stereo unspecified)"
  ASSIGNED_CLASS: "inactive"
- COMPOUND: "Nc1ccc(S(=O)(=O)NCc2ccccc2)cc1"
  ASSIGNED_CLASS: "inactive"
- COMPOUND: "CCCCCCCCCCCC(=O)NCCCN(C)C"
  ASSIGNED_CLASS: "inactive"
- COMPOUND: "COc1ccc(OC(=O)N(CC(=O)O)Cc2ccc(OCCc3nc(-c4ccccc4)oc3C)cc2)cc1"
  ASSIGNED_CLASS: "inactive"
- COMPOUND: "CCCCC(CC)CN (stereo unspecified)"
  ASSIGNED_CLASS: "inactive"
- COMPOUND: "OCCCCCCO"
  ASSIGNED_CLASS: "inactive"
- COMPOUND: "COc1cc(NS(=O)(=O)c2ccc(N)cc2)ncn1"
  ASSIGNED_CLASS: "inactive"
- COMPOUND: "CCOC(=O)C(=O)c1csc(NC=O)n1"
  ASSIGNED_CLASS: "inactive"
- COMPOUND: "CCCCCCCCCOC(=O)c1ccc(O)cc1"
  ASSIGNED_CLASS: "inactive"
- COMPOUND: "CC[C@@H](CO)NCCN[C@@H](CC)CO"
  ASSIGNED_CLASS: "inactive"
- COMPOUND: "CCOc1ccccc1O[C@H](c1ccccc1)[C@H]1CNCCO1"
  ASSIGNED_CLASS: "inactive"
- COMPOUND: "Cc1c(N=C=O)cccc1N=C=O"
  ASSIGNED_CLASS: "inactive"
- COMPOUND: "CCO[Si](CC)(OCC)OCC"
  ASSIGNED_CLASS: "inactive"
- COMPOUND: "O=C(Oc1ccccc1)c1ccccc1C(=O)Oc1ccccc1"
  ASSIGNED_CLASS: "inactive"
- COMPOUND: "COc1ccc(C(C)=O)cc1"
  ASSIGNED_CLASS: "inactive"
- COMPOUND: "C=COCC1CCC(COC=C)CC1 (stereo unspecified)"
  ASSIGNED_CLASS: "inactive"
- COMPOUND: "CCCCCCCCCCCBr"
  ASSIGNED_CLASS: "inactive"
- COMPOUND: "CC(C)Cc1ccc(C(C)C(=O)OCc2ccccn2)cc1 (stereo unspecified)"
  ASSIGNED_CLASS: "inactive"
